The measurements presented in this section are drawn from paper PMC7374468.

# Substrate: O=C(O)C(=O)C[C@H](O)CO
# Procedure details: purified protein, by the assay type
# Parameters: coupled assay with PpKGSADH, NADH formation at 340 nm, Michaelis-Menten fit, 25 °C, pH 7.5
# Details: pH 7.5; 25.0 °C
Quantity: kcat/Km (M⁻¹ s⁻¹)
Respond with the bare value in M⁻¹ s⁻¹.

Sample records with kcat/Km:
protein="AbL-KdpD (Azospirillum brasilense) (protein, N-terminal His6 tag (kept), codon-optimised synthetic gene, E. coli BL21(DE3), HisTrap purified, lower purity) MTSSSTPRHRGIFPVVPTTFADTGELDLASQKRAVDFMIDAGSDGLCILANFSEQFAITDDERDVLTRTILEHVAGRVPVIVTTSHYSTQVCAARSLRAQQLGAAMVMAMPPYHGATFRVPEAQIFEFYARVSDAIAIPIMVQDAPASGTALSAPFLARMAREIEQVAYFKIETPGAANKLRELIRLGGDAIEGPWDGEEAITLLADLHAGATGAMTGGGFPDGIRPILEAWREGRHDDAYARYQAWLPLINHENRQSGILTAKALMREGGVIASERPRHPMPELHPDTRAELLAIARRLDPLVLRWAH" quantity=kcat/Km endpoint_result=980
protein="HsL-KdpD (Herbaspirillum seropedicae SmR1) (protein, N-terminal His6 tag (kept), pET vector, E. coli BL21(DE3), HisTrap purified) MSTPLYRGVFPVAPTIFDANGKLDLEGQKRAIDFMIDAGSNGLCILANFSEQFVLSDEERVQVQNTVLEHVAGRVPVIVTTTHYGSQICAERSRAAQDAGAAMVMVMPPYHGATFRVPEKQIYEFYKHVSDAIDIPIMIQDAPVAGTPLSAPFLARMAKEIEQVSYFKIETAGAASKLRDLIELGGDAVVGPWDGEEAITLIPDLDAGATGAMTGGGYPDGIRKIVDAYFAGDIEKAAELYMQWLPLINYENRQCGLSACKALMLEGGVIKSDMLRHPQPPLHPKVREGLLRVARRLDPLVLSWGR" quantity=kcat/Km endpoint_result=2580

Next:
Req: What measured kcat/Km goes with CnL-KdpD (Nhis) (Cupriavidus necator H16) (protein, N-terminal His6 tag (kept), pET vector, E. coli BL21(DE3), HisTrap purified; strain given inconsistently (H16 gDNA vs N-1)) MTRTPSPTVYRGVFPVAPTVFDAQGGLDLDGQRRCIDFMIDAGSHGICILANFSEQFVLSDDERNVLMKTVLEHVDGRVPVIVTTTHFSSRLCAERSRAAQDAGAAMVMVMPPYHGATIRVPERSIYEFFATVSDAIDIPIMIQDAPVSGTTLSAPFLARMAREIGNVSYFKIEVPQAAAKLRELIELGGDAIVGPWDGEEAITLMADLEAGATGAMTGAGFPDGIRQILDAWQAGDAELAAQRYQQWLPLINYENRQGWLATSKVLMQAGGVIASDAVRHPLQPMHPATREGLLKIARRLDPLVLRWAR ?
Resp: 2950
